Tested on: CCRF-CEM leukemia
Test Description: NCI-60 one-dose screen, 48 h
Experimental Context: 10 µM
The panel holds about 83,000 compounds, 20% with a hit somewhere; the sample as a whole holds those more often. The source made the active and inactive calls. The calls were made as follows: active = growth percent below 10; inactive = the rest.
Outcomes you can answer with include only these: t (active), f (inactive)

Reference set (3 entries):
1. CC(=O)c1nc2ccccc2n1CCN1CCN(C)CC1	t
2. CC(=O)N1C/C(=C/c2ccc(Cl)cc2)C(=O)/C(=C/c2ccc(Cl)cc2)C1	t
3. CC/C(=C(/c1ccc(OCCN(C)C)cc1)c1ccc(OC(=O)CCC(=O)c2c(C)[nH]c(/C=C3\N=C(c4ccc[nH]4)C=C3OC)c2C)cc1)c1ccccc1	t

Task item: What classification did `O=C1/C(=C\c2ccc(Cl)cc2)CN(C(=S)Nc2ccccc2)C/C1=C\c1ccc(Cl)cc1` end up with in this test?
Reply: t

Task item: // outcome(item) with item = `N#CCCN1C/C(=C/c2ccc(Cl)cc2)C(=O)/C(=C/c2ccc(Cl)cc2)C1`
Reply: t

Task item: Check the results log: what was the call for CCN(CC)CCCC(C)Nc1ccc2ccc(Cl)cc2n1 (stereo not given) ?
Reply: f

Task item: Look up the recorded call for `COc1ccc(-c2nc(-c3nc4ccc(OC)cc4[nH]3)cc3c2[nH]c2ccccc23)cc1` in this test.
Reply: f

Task item: Just curious, what result did `CS(=O)(=O)Nc1cccc(-c2cc(-c3ccccc3Cl)c(C#N)c(N)n2)c1` get here?
Reply: f

Task item: // return assay outcome for `O=C1C(=O)c2ccccc2C(O)=C1CCCc1ccc(C2CCCCCC2)cc1`
Reply: f

###

System: HOP-62 NSCLC
Test Description: NCI-60 one-dose screen, 48 h (100 = growth as untreated, 0 = no growth, -100 = all killed)
Experimental Context: 10 µM
About 83,000 compounds went through this panel and 20% of them were active in at least one assay; those are over-represented in the sample as a whole.
Endpoint: growth (%)
Give bare numbers, in %.

Below are worked cases with known answers.
1. COc1cc(CNCCCCCCN2C(=O)c3cccc4cccc(c34)C2=O)ccc1O	70.3
2. N=C(N)c1ccc(-c2ccc(-c3ccco3)o2)cc1	81.7
3. Cc1cc(N(CCCNc2ccnc3cc(Cl)ccc23)Cc2ccc3c(c2)OCO3)nc(N2CCOCC2)n1	10.1
4. N#Cc1ncc(-c2ccc(C(F)(F)F)cc2)c(NCc2cc(C(F)(F)F)cc(C(F)(F)F)c2)n1	39.2
5. Cc1cc(C)c(CCc2cc(C)c(C)cc2C)cc1C	117

Could you tell me growth for each of these compounds? They are listed below.
1. CN(C)c1ccc(Cc2ccc(N(C)C)cc2Cl)c(Cl)c1
2. Clc1nc(Cl)c2c(ncn2C/C=C\Cn2cnc3c(Cl)nc(Cl)nc32)n1
3. COc1cc(Cc2cc(-c3ccc(Cl)cc3)n[nH]c2=O)ccc1O
4. CCOC(=O)CNC(=O)CCCCSc1ncnc2nc[nH]c12
5. O=C(C[n+]1ccccc1)c1ccc2ccccc2c1
6. Oc1[nH]c2ccc(Cl)cc2c1/C=c1/ccc2c(c1)N=C(c1cc(F)cc(F)c1)N=2

Reply:
[105, 11.2, 104, 96.2, 89.1, 58.7]

Go through the list and state growth for each entry.
1. Cc1cc(=O)n2nnc3c4ccccc4ccc3n12
2. O=C(Nc1ccc(OS(=O)(=O)c2ccccc2)cc1)C12CC3CC(CC(C3)C1)C2

Reply:
1. 70
2. 74.4

###

System: OVCAR-3 ovarian
Test Description: NCI-60 one-dose screen, 48 h
Experimental Context: 10 µM
Protocol: Growth inhibition of the OVCAR-3 human tumor cell line is measured as a screen for anti-cancer activity. Cells are grown in 96 well plates and exposed to the test compound for 48 hours. Compounds are tested at a single concentration, which is 10^-5 M for most compounds. The reported endpoint is percent growth (GI% or GIPRCNT), where numbers from 0 - 100% represent growth inhibition, and numbers from -100% - 0 represent cell death. For example, a value of 40 represents 60% growth inhibition. […]
This is part of a sample that, as a whole, favours compounds with a hit. Of some 83,000 tested, about 20% had one in any assay. The source made the active and inactive calls. Rule for the calls: active = growth percent below 10; inactive = the rest.
Permitted responses: active, inactive

Example results:
1. O=[N+]([O-])c1cccc(-c2ncc(-c3ccc(Cl)cc3Cl)[nH]2)c1	inactive
2. COc1ccc(-c2nc(-c3nc4cc(Cl)c(Cl)cc4[nH]3)c3ccccn23)cc1	inactive
3. COc1cc2c(cc1OCCCN1CCN(c3ncnc4ccccc34)CC1)N=CC1CCCN1C2=O (stereo unspecified)	active
4. O=c1[nH]c2ccc(Cl)cc2c2ccccc12	inactive
5. O=C(Nc1ccc(OS(=O)(=O)c2ccccc2)cc1)C12CC3CC(CC(C3)C1)C2	inactive

Please look at the following molecule next.
Task item: Per the assay record, what outcome was assigned to O=C(NN1C(=O)CSC1c1ccc(Cl)cc1)c1cccnc1 (stereo unspecified) ?
Reply: inactive

###

System: MALME-3M melanoma
Test Description: NCI-60 one-dose screen, 48 h (100 = growth as untreated, 0 = no growth, -100 = all killed)
Experimental Context: 10 µM
This is part of a sample that, as a whole, favours compounds with a hit. Of some 83,000 tested, about 20% had one in any assay.
Endpoint: growth (%)
Answers are plain numbers, in %.

Examples from the recorded data:
1. Cc1cc2c(C)c3cc(C)c(N)cc3nc2cc1N	-3.24
2. O=C(O)CN1C(=O)c2cccc3cccc(c23)C1=O	102
3. O=c1oc2cc(OS(=O)(=O)c3ccccc3)ccc2c2c1CCCCC2	66.7
4. Nc1cc2c(cc1Cl)-c1ccc([N+](=O)[O-])cc1/C2=N\O	90.7
5. CCOC(=O)C1(CC(C)C)CCOC1=O (configuration not stated)	101

Batch of 7 molecules: report growth for each.
1. CSc1nn(-c2ccccc2)c2ncnc(Oc3ccccc3)c12
2. O=C1c2ccc3c4c(ccc(c24)C(=O)N1CCNCc1ccccc1)C(=O)N(CCNCc1ccccc1)C3=O
3. C#Cc1ccc(-n2c(/C=C/c3ccc4ccccc4c3)nc3ncccc3c2=O)cc1
4. COc1cc(OC)cc(-c2cncn2-c2ccc(-c3nc4cc(OC)cc(OC)c4s3)cc2)c1
5. COc1ccc(Nc2ccnc(NCCNc3ccnc4cc(Cl)ccc34)n2)cc1
6. O=C(Nc1cccc(-n2cc(-c3ccncc3)c(-c3ccc(O)c(Cl)c3)n2)c1)c1cc(C(F)(F)F)cc(C(F)(F)F)c1
7. COc1ccc(-n2c(SCc3cc(OC)c(OC)c(OC)c3)nc3ccc(C)cc3c2=O)cc1

Reply:
104
-68.4
39.5
48
-1.18
70.4
59.7

###

System: RPMI-8226 leukemia
Test Description: NCI-60 one-dose screen, 48 h (100 = growth as untreated, 0 = no growth, -100 = all killed)
Experimental Context: 10 µM
The panel holds about 83,000 compounds, 20% with a hit somewhere; the sample as a whole holds those more often.
Tag: TRUE if measured growth is not below 90%, FALSE if it is.

Examples with answers:
1. Cc1cccc(C)c1NC(=O)c1sc2nc3c(cc2c1N)C(=O)CCC3	TRUE
2. NC1=NC(=O)C(c2ccccc2)(c2ccccc2)S1	TRUE
3. Clc1ccc(Nc2ccnc(NCCCNc3ccnc4cc(Cl)ccc34)n2)cc1	FALSE
4. CCN(CC)CCCOCCCNc1cc(OC)cc2cccnc12	FALSE
5. Nc1c(C(=O)Nc2ccccc2)sc2nc3c(cc12)C(O)CCC3 (stereo not drawn)	FALSE
6. COc1ccc(Nc2cc(C)nc(NCCCNc3ccnc4cc(Cl)ccc34)n2)cc1	FALSE

Continue with the compound presented below.
Task item: Tell me whether growth is at least 90% here: `CCCCOc1ccc(NC(=O)Nc2nnc(C)s2)cc1`
Reply: FALSE

###

Test system: UO-31 renal
Test Description: NCI-60 one-dose screen, 48 h
Experimental Context: 10 µM
The panel holds about 83,000 compounds, 20% with a hit somewhere; the sample as a whole holds those more often. The source made the active and inactive calls. How the source made its calls: active means growth percent below 10; inactive means the rest.
Log the outcome using a class from TRUE (active), FALSE (inactive)

1) c1ccc2c(c1)oc1c3c(ccc12)NCCC3	FALSE
2) CCN1CCC(CCOC)(CN2c3ccccc3Sc3ccc(Cl)cc32)C1 (stereo unspecified)	TRUE
3) c1ccc2c(-c3nc(N4CCOCC4)c4c5c(sc4n3)CCCCCC5)cccc2c1	FALSE
4) COc1ccc(-c2nn(-c3cccc(NC(=O)c4ccc5c(c4)OCCO5)c3)cc2-c2ccncc2)cc1Cl	FALSE
5) C=C(NC(=O)C(=C)NC(=O)c1csc(C2=NC3c4csc(n4)C4NC(=O)c5csc(n5)C(C(C)(O)C(C)O)NC(=O)C5CSC(=N5)/C(=C/C)NC(=O)C(C(C)O)NC(=O)c5csc(n5)C3(CC2)NC(=O)C(C)NC(=O)C(=C)NC(=O)C(=C)NC(=O)C(C(C)C)NC2C=Cc3c(C(C)O)cc(nc3C2O)C(=O)OC4C)n1)C(N)=O (stereo unspecified)	TRUE

Task item: Which outcome did this test record for the molecule `CN(C)C=Nc1cc(Cl)ccc1Cl` ?
Reply: FALSE

Task item: Please share the test call associated with Cc1[nH]nc2c1C(c1cnn(C)c1)C(C#N)=C(N)O2 (stereo unspecified) .
Reply: FALSE

Task item: Please share the test call associated with `COc1cc(/C=C\c2cc(OC)c(OC)c(OC)c2)cc(NS(=O)(=O)c2ccc(Cl)cc2)c1OC` .
Reply: FALSE

Task item: For O=C(NN1C(=O)CSC1c1ccc(Cl)cc1)c1cccnc1 (stereo unspecified) , which call appears in the assay record?
Reply: FALSE

Task item: Entry O=C1OCC2=C1C(c1cccc(Cl)c1)c1cc3c(cc1N2CCO)OCO3 (stereo unspecified) : call = ?
Reply: FALSE

Task item: What outcome does the record of this test show for `COc1ccc(/C=C/C(=O)Nc2ccc(-c3nc4ccc(F)cc4s3)cc2)cc1` ?
Reply: FALSE
